- Tgt: Tyrosine-protein kinase JAK3 (Homo sapiens)
- Sequence (P52333 whole entry, the tested form may be a part): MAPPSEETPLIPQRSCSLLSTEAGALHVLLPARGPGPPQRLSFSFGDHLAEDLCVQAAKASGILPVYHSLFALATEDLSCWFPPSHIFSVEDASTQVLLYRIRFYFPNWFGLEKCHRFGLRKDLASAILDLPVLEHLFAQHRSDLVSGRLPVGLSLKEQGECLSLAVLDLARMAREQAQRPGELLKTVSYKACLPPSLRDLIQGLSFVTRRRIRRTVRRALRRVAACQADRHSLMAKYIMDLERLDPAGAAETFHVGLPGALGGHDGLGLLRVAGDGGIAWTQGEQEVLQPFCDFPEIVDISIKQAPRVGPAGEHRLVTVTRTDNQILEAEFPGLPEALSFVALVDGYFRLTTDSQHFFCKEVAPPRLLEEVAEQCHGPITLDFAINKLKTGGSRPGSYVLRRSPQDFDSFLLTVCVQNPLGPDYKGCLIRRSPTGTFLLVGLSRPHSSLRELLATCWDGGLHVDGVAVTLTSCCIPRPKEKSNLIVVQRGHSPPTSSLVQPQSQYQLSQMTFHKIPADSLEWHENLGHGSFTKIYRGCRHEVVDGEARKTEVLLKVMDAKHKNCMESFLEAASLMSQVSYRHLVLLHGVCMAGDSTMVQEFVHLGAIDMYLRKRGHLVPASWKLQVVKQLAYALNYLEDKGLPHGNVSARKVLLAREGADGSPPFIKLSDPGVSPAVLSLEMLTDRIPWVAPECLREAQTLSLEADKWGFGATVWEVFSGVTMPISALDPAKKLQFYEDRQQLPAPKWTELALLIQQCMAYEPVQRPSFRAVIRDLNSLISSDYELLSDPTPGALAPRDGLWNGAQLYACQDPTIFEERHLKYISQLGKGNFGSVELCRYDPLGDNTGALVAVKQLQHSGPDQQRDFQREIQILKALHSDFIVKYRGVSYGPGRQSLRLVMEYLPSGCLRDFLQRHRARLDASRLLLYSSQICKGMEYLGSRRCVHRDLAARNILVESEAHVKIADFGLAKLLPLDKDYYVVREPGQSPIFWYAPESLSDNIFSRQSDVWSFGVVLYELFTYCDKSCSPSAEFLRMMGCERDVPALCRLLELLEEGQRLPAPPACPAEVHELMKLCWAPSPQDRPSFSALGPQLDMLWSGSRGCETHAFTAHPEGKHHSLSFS
- Assay details: Inhibition of recombinant human JAK3 (781 to 1124 residues) expressed in insect cells using 5FAM-GEEPLYWSFPAKKK-NH2 as substrate after 10 mins by caliper assay
pIC50: −log10 of the molar value.
// values below are reported pIC50

Observe how each entry below is paired with its result.
>>> recorded_value("CCC(CC)Nc1nc(Nc2cc(N3C[C@@H]4C[C@H]3CN4C)cnc2F)ncc1C")
"< 4.52"
>>> recorded_value("Cc1cnc(Nc2cc(N3CCN(CCO)CC3)cc(S(C)(=O)=O)c2)nc1Nc1cccc(CO)c1")
"< 4.52"

[Q] Please report the recorded pIC50 for Cc1cnc(Nc2cc(N3C[C@@H]4C[C@H]3CN4C)cc(C(F)F)c2F)nc1Nc1cccc(CO)c1 .
[A] < 4.52

The measured values listed here are drawn from ChEMBL document CHEMBL4138312.
